Provenance of the data: patent US20060287320A1

Test system: PC-3 Prostate
PROCEDURE_DETAILS: In vitro IC50, 72 hour exposure, Natural Red assay
Assay type: cell-based
ASSAY_CONTEXT: read-out: IC50 Molar Values
ATTRIBUTE_MEASURED: pIC50
By convention, pIC50 is the negative base-10 log of a molar concentration.

COMPOUND	pIC50
Nc1ccn([C@@H]2S[C@H](CO)[C@@H](O)[C@@H]2O)c(=O)n1	5.10

Q: Recall the reported pIC50 of Nc1ccn([C@@H]2O[C@H](CO)[C@@H](O)[C@@H]2O)c(=O)n1 [araC, cytosine arabinoside] on PC-3 Prostate and write it down.
Result: 5.30

Q: Recall the reported pIC50 of "Nc1nc(=O)n([C@@H]2S[C@H](CO)[C@@H](O)[C@@H]2O)cc1F" on PC-3 Prostate and write it down.
Result: 4.00

====

Test system: araC-resistant CEM cells
PROCEDURE_DETAILS: Inhibition of CEM cell growth, araC-resistant
ASSAY_CONTEXT: read-out: IC50 (nM) araC-resistant; araC-resistant CEM cells; cell numbers by Coulter Counter; mean and standard deviation from 3 experiments
ATTRIBUTE_MEASURED: IC50 (nM)
Field format: number, assumed nM, no unit text.

Q: Answer with the recorded IC50 for the molecule listed here: Nc1ccn([C@@H]2O[C@H](CO)[C@@H](O)[C@@H]2O)c(=O)n1 [araC, cytosine arabinoside]
Result: 800
